system: primary human hepatocytes (PHHs); assay: IRES screening (Table 28), Gaussia luciferase LNP-oRNA in primary human hepatocytes (PHHs); settings: protein expression relative to positive control (SEQ ID NO 3282 = 1)
Reported PHH AVG [Fold Change] values are given for each entry in this list.
Provide only the numeric value, understood in Fold Change.

| molecule | u | PHH AVG [Fold Change] |
| --- | --- | --- |
| CCCCCCCCC(CCCCCC)C(=O)OCCCCCCN(CCCC#N)CCCCCCOC(=O)C(CCCCCC)CCCCCCCC (stereo not shown) | Fold Change | 0.005378 |
| CCCCC(CC)C(=O)OCCCCCCCCCN(CCCO)CCCCCCCCCOC(=O)C(CC)CCCC (stereo not shown) | Fold Change | 0.456 |
| CCCCCCCCCCCCC(CCCCCCCCCC)C(=O)OCCCCCCN(CCCO)CCCCCCOC(=O)C(CCCCCCCCCC)CCCCCCCCCCCC (stereo not shown) | Fold Change | 0.01602 |
| CCCCCCCCC(CCCCCC)C(=O)OCCCCCCN(CCCCCCOC(=O)C(CCCCCC)CCCCCCCC)CCCC(=O)OCC (stereo not shown) [Lipid 48] | Fold Change | 0.4247 |
| CCCCCCCCCCC(CCCCCCCC)C(=O)OCCCCCCN(CCCCO)CCCCCCOC(=O)C(CCCCCCCC)CCCCCCCCCC (stereo not shown) | Fold Change | 0.01252 |

GET /values?item= CCCCCCCCCCCCCCCC(O)C(CO)N(CCCCCCOC(=O)C(CCCCCC)CCCCCCCC)CCCCCCOC(=O)C(CCCCCC)CCCCCCCC (stereo not shown) &system= primary human hepatocytes (PHHs) returns PHH AVG [Fold Change]: 0.3276

GET /values?item= CCCCCCCCC(CCCCCC)C(=O)OCCCCCCN(CCCCCCOC(=O)C(CCCCCC)CCCCCCCC)CCCCOC(C)=O (stereo not shown) &system= primary human hepatocytes (PHHs) returns PHH AVG [Fold Change]: 0.4409

Data credit: patent US20250283073A1
